test system: S. pneumoniae J24; assay: Antibacterial activity (MIC), standard method of the Japan Society of Chemotherapy; format: cell-based; settings: Streptococcus pneumoniae; S. pneumoniae J24, quinolone-resistant; read-out: MIC
Readout: MIC (µg/mL)
Just the number please, in µg/mL, no unit attached.

// worked examples, MIC included
>>> result_value("CC[C@H]1CN(c2c(F)cc3c(=O)c(C(=O)O)cn([C@@H]4C[C@@H]4F)c3c2OC)C[C@H]1N")
0.025
>>> result_value("CC[C@H]1CN(c2c(F)cc3c(=O)c(C(=O)O)cn([C@@H]4C[C@@H]4F)c3c2C)C[C@H]1N")
0.025
>>> result_value("CC[C@H]1CN(c2c(F)cc3c(=O)c(C(=O)O)cn4c3c2OC[C@@H]4C)C[C@H]1N")
0.1
>>> result_value("Cc1c(N2C[C@@H](N)[C@@H](C(C)C)C2)c(F)cc2c(=O)c(C(=O)O)cn([C@@H]3C[C@@H]3F)c12")
0.05

Now turn to the next compound.
Look up MIC with S. pneumoniae J24 for this compound: COc1c(N2C[C@@H](N)[C@@H](C3CC3)C2)c(F)cc2c(=O)c(C(=O)O)cn([C@@H]3C[C@@H]3F)c12
0.1
